List of kon values.
Biological target: T1, Human CD19-his protein (human, UniProt P15391 20-291)
T1 construct: bought protein; also called recombinant human CD19-His; CD19 full-length protein; not shown: His tag
T1 sequence (looked up): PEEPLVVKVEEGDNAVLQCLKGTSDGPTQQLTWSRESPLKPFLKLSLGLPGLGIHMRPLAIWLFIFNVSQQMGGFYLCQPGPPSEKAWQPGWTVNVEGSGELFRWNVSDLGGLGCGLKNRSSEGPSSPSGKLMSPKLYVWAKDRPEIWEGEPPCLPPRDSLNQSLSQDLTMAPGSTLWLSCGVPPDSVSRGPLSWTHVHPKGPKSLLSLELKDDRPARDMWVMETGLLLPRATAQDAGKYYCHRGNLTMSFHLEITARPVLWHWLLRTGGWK
Assay: SPR Biacore, Ab captured on Protein A, CD19-His analyte
Number in M⁻¹ s⁻¹, nothing else.

Some solved entries appear below for comparison.
binder | endpointValue
F3.114.12 (antibody, human IgG1, V domains shown, human-murine chimeric antibody, human IgG1 constant) VH: DVQLQESGPGLVKPSQSLSLTCSVTGYSITSGYDWNWIRQFPGNKLEWMGYISYDGKNNYNPSLRNRISITRDTSKNQFFLKLNSVTTEDTATYYCARRDLRGYFDVWGTGTTVTVSS VL: DIVLTQSPATLSVTPGDRVSLSCRASQSISNYLHWYQQKSHESPRLLIKYASLSISGIPSRFSGSGSGTDFTLSINSVETEDFGVYFCQQSNSWPLTFGAGTKLELK | 77000
F4.125.12 (antibody, human IgG1, V domains shown, human-murine chimeric antibody, human IgG1 constant) VH: EVKLVESGGGLVQPGGSLKLSCAASGFTFSTYTMSWVRQTPEKRLEWVAFISSGGGHINYPDTVKGRFTISRDNAKNTLYLQMSSLKSEDTAMYYCARHSYWFFDVWGAGTTVTVSS VL: DVQITQSPSYLAASPGETITINCRASKNIDTYLAWYQEKPGKTNKLLIYSGSTLQSGIPSRFRGGGSGTDFTLTICSLEPEDFAMYYCQQHNEYPLTFGAGTKLELK | 278000
F5.11.2 (antibody, human IgG1, V domains shown, human-murine chimeric antibody, human IgG1 constant) VH: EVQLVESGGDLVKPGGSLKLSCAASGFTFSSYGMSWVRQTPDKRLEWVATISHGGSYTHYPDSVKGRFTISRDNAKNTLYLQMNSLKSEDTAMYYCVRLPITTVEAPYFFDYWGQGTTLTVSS VL: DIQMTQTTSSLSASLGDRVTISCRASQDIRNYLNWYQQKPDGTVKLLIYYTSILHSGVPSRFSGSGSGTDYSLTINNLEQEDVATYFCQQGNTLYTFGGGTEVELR | 36600
F4.48.12 (antibody, human IgG1, V domains shown, human-murine chimeric antibody, human IgG1 constant) VH: QMQLKESGPGLVAPSQSLSITCTVSGFSLTDYGVSWIRQPPGKGLEWLGVIWGSGSTFYNSALTSRLSISKDNSKSQVFLKMNSLQTADTAMYFCAKHHYYGGSFAMDYWGQGTSVTVSS VL: DIQMTQASSSLSASLGDRVTISCKTSQDISNYLNWYQQKPDGTFKLLIHYTSRLHSGVPSRFSGSGSGSDYSLTISNLEREDIATYFCQQGNSLPYTFGGGTKLEMK | 264000
F4.276.12 (antibody, human IgG1, V domains shown, human-murine chimeric antibody, human IgG1 constant) VH: EIQLQQSGPELVKPGASVKVSCKASGYAFSAYNMYWVKQSHGKSLEWIGYIDPYNGGTNYNQKFKGKATLTVDKSSSTAYMHLNSLTSEDSAVYYCARDGYEVTYWGQGTLVTVSA VL: QIVLTQSPALMSASLGEEITLTCSASSSVTYMHWSQQKSGTSPRLLIYSTSNLASGVPSRFSGSGSGTFYSLTISSVEAEDAADYYCHQWSSYPWTFGGGTKLEIK | 243000

Consider the record given below.
The reported kon of the binder F3.64.4 (antibody, human IgG1, V domains shown, human-murine chimeric antibody, human IgG1 constant) VH: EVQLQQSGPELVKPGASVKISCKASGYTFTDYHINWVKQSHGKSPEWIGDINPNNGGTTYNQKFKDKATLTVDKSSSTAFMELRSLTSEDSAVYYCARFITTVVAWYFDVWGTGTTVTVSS VL: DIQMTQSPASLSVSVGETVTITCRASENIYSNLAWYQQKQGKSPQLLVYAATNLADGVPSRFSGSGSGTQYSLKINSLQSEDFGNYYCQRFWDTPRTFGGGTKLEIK was 191000
